test_details: Plasma pharmacokinetics after 2-hour IV infusion (LC-MS/MS)
conditions_used: read-out: AUC(I) Mean; Day 1, 3.63 mg/m^2, N 7 (n=6)

compound | AUC(0-inf) [µg·h/mL]
CCc1cnn2c(NCc3ccc[n+]([O-])c3)cc(N3CCCC[C@H]3CCO)nc12 [dinaciclib] | 0.458

----------
test_details: clinical
conditions_used: human, plasma, intravenous, 12 mg/m2

structure_as_smiles | Cmax [ng/mL]
CCc1cnn2c(NCc3ccc[n+]([O-])c3)cc(N3CCCC[C@H]3CCO)nc12 | 525

----------
test_details: Plasma pharmacokinetics after 2-hour IV infusion (LC-MS/MS)
conditions_used: read-out: AUC(tf) Mean; Day 1, 0.33 mg/m^2, N 1
readout_name: AUC(0-t) (ng·h/mL)

structure_as_smiles | readout_name | reported_measurement
CCc1cnn2c(NCc3ccc[n+]([O-])c3)cc(N3CCCC[C@H]3CCO)nc12 | AUC(0-t) | 26.1

Data provenance is paper PMC3853718.
